Can you tell me inhibition in vivo at 1 mg/kg/day for the items I'm about to list?
- System: Mus musculus
- PROTOCOL_TEXT: Inhibition of acute experimental autoimmune encephalomyelitis in SJL/N mice by 1 mg/kg/day p.o./s.c.
- Assay type: functional
- ASSAY_CONDITIONS: route oral
Give bare numbers, in %.

Go through the items and report each one's inhibition in vivo at 1 mg/kg/day.
1. CCN(C(=O)c1c(O)c2c(OC)cccc2n(C)c1=O)c1ccccc1
2. CN(C(=O)c1c(O)c2cc(OC(F)(F)F)ccc2n(C)c1=O)c1ccccc1
3. CN(C(=O)c1c(O)c2cc(F)ccc2n(C)c1=O)c1ccc(F)cc1
4. CN(C(=O)c1c(O)c2c(Cl)cccc2n(C)c1=O)c1ccccc1
5. CCN(C(=O)c1c(O)c2c(Cl)cccc2n(C)c1=O)c1ccccc1
6. CN(C(=O)c1c(O)c2cc(Cl)ccc2n(C)c1=O)c1ccccc1
7. COc1cccc2c1c(O)c(C(=O)N(C)c1ccccc1)c(=O)n2C
8. CCN(C(=O)c1c(O)c2cc(OC)ccc2n(C)c1=O)c1ccccc1

## Result
[73, 72, 77, 99, 92, 100, 95, 37]
